Reference source for all entries: patent US5935982A

Assay: in vitro
Format: cell-based
Conditions: human, cem and magic cells
quantity measured: CC50 (µM)
Kindly provide the numeric value in µM only, without the unit symbol.

Record summary for `c1cc2nc(-c3ccc(-c4nc5ccc(C6=NCCN6)cc5[nH]4)o3)[nH]c2cc1C1=NCCN1` : reported CC50 = 41.9

The value of CC50 measured for the molecule `c1cc2[nH]c(-c3ccc(-c4nc5cc(C6=NCCN6)ccc5[nH]4)[nH]3)nc2cc1C1=NCCN1` turned out to be 213

Recorded CC50 (molecule `N=C(N)c1ccc2nc(-c3cccc(-c4nc5ccc(C(=N)N)cc5[nH]4)c3)[nH]c2c1` ): 40

Briefly, CC50 measured for `CC(C)NC(=N)c1ccc2nc(-c3ccc(-c4nc5ccc(C(=N)NC(C)C)cc5[nH]4)o3)[nH]c2c1` : 238

* * *

Biological target: HIV-1 integrase (Human immunodeficiency virus type 1 group M subtype B, UniProt P04585)
Construct: using the integrase coding domain from the HXB2 clone; made in house; host or cells: E. coli
Assay: Integrase inhibition assay (site-specific cleavage/joining of labeled oligonucleotide substrate)
Assay type: biochemical, HIV-1 (HXB2 clone)
Conditions: initial screening at 10 μM; assay in duplicate
pIC50: −log10 of the molar value.
quantity measured: pIC50

# pIC50 measured on HIV-1 integrase (Human immunodeficiency virus type 1 group M subtype B, UniProt P04585) for item `N=C(N)c1ccc2nc(-c3ccc(-c4nc5ccc(C(=N)N)cc5[nH]4)o3)[nH]c2c1` = 6.05

pIC50 for HIV-1 integrase (Human immunodeficiency virus type 1 group M subtype B, UniProt P04585) with input `c1cc(-c2nc3cc(C4=NCCN4)ccc3[nH]2)cc(-c2nc3cc(C4=NCCN4)ccc3[nH]2)c1` equals < 5.00

pIC50 of `c1cc2[nH]c(-c3ccc(-c4nc5cc(C6=NCCN6)ccc5[nH]4)[nH]3)nc2cc1C1=NCCN1` , assay on HIV-1 integrase (Human immunodeficiency virus type 1 group M subtype B, UniProt P04585), is < 5.00

The reported HIV-1 integrase (Human immunodeficiency virus type 1 group M subtype B, UniProt P04585) pIC50 of `CC(C)NC(=N)c1ccc2nc(-c3ccc4c(c3)Cc3cc(-c5nc6ccc(C(=N)NC(C)C)cc6[nH]5)ccc3-4)[nH]c2c1` is > 5.00

GET /values?item= `CC(C)NC(=N)c1ccc2nc(-c3cnc(-c4nc5ccc(C(=N)NC(C)C)cc5[nH]4)o3)[nH]c2c1` &system= HIV-1 integrase (Human immunodeficiency virus type 1 group M subtype B, UniProt P04585) returns pIC50: > 5.00

The molecule `c1cnc(-c2ccc3nc(-c4ccc(-c5nc6ccc(-c7ncccn7)cc6[nH]5)[nH]4)[nH]c3c2)nc1` on HIV-1 integrase (Human immunodeficiency virus type 1 group M subtype B, UniProt P04585): pIC50 was > 5.00

Summary line: `N=C(N)c1ccc2nc(-c3ccc(-c4nc5ccc(C(=N)N)cc5[nH]4)[nH]3)[nH]c2c1` , HIV-1 integrase (Human immunodeficiency virus type 1 group M subtype B, UniProt P04585), reported pIC50 = 6.30

Case `N=C(N)c1ccc2nc(-c3ccc4oc(-c5nc6ccc(C(=N)N)cc6[nH]5)cc4c3)[nH]c2c1` , HIV-1 integrase (Human immunodeficiency virus type 1 group M subtype B, UniProt P04585), pIC50 recorded as > 5.00

`Cn1c(-c2nc3ccc(C(=N)N)cc3[nH]2)ccc1-c1nc2ccc(C(=N)N)cc2[nH]1` on HIV-1 integrase (Human immunodeficiency virus type 1 group M subtype B, UniProt P04585) gives pIC50 = 6.07

* * *

Target: HIV-1 integrase (Human immunodeficiency virus type 1 group M subtype B)
Construct: using the integrase coding domain from the HXB2 clone
Test: Integrase inhibition assay (site-specific cleavage/joining of labeled oligonucleotide substrate)
Conditions: initial screening at 10 μM; assay in duplicate
Protocol: Purification of Integrase Protein. […] Cleavage of specific sites is assessed as described in Sherman et al., supra, except that the assay buffer was the same as that reported by Chow et al, Science 255:723 (1992). […] This allows the reaction to be more easily quantitated with the phosphorimager. […]
quantity measured: pIC50
The value called pIC50 is obtained by taking minus log10 of the concentration in mol/L.

Lab note: `c1cc2nc(-c3ccc(-c4nc5ccc(C6=NCCN6)cc5[nH]4)o3)[nH]c2cc1C1=NCCN1` gave pIC50 of 6.22

The compound identified as `N=C(NC1CCCC1)c1ccc2nc(-c3ccc4oc(-c5nc6ccc(C(=N)NC7CCCC7)cc6[nH]5)cc4c3)[nH]c2c1` registered its pIC50 at 5.85

Reported pIC50 ( `N=C(N)c1ccc2nc(-c3cccc(-c4nc5ccc(C(=N)N)cc5[nH]4)c3)[nH]c2c1` ) = 6.00

* * *

Assay: in vitro
Format: cell-based
Settings: human, cem and magic cells
Experimental: Cell lines used were CEM cells, a human T-cell lymphona cell line, A. Kaplan et al, J. Virol. 67:4050-5 (1993), and Magic cells, J. Kimpton et al, J. Virol. 66:2232 (1992). The CEM cells were grown in RPMI-1640 medium supplemented with 5% FCS. […] The initial test for toxicity utilized the XTT Assay as described by Weislow et al, J. Natl. Cancer Inst. […] The O.D. was measured on a Vmax plate reader from Molecular Devices Co. with data reduction. Results are expressed as percent of untreated controls. […]
Record form. Attribute: CC50. Fill in for each entry.
All answers are understood in µM, so give the number only.

response.value for `N=C(NC1CCCC1)c1ccc2nc(-c3ccc(-c4nc5ccc(C(=N)NC6CCCC6)cc5[nH]4)[nH]3)[nH]c2c1` (field: CC50) = 78.2

Looking up `Cn1c(-c2nc3ccc(C(=N)NC4CCCC4)cc3[nH]2)ccc1-c1nc2ccc(C(=N)NC3CCCC3)cc2[nH]1` , I found its CC50 recorded as 732

Per the record, `N=C(N)c1ccc2nc(-c3ccc(-c4nc5ccc(C(=N)N)cc5[nH]4)o3)[nH]c2c1` has CC50 of 81.5

get_value(item= `Cn1c(-c2nc3ccc(C(=N)N)cc3[nH]2)ccc1-c1nc2ccc(C(=N)N)cc2[nH]1` , readout=CC50) returns 90.3

For record `CC(C)NC(=N)c1ccc2nc(-c3ccc(-c4nc5ccc(C(=N)NC(C)C)cc5[nH]4)n3C)[nH]c2c1` the listed CC50 is 289

* * *

For each of the molecules below, state its IC50.
Molecular target: HIV-1 integrase (Human immunodeficiency virus type 1 group M subtype B, UniProt P04585)
Construct: using the integrase coding domain from the HXB2 clone
Test: Integrase inhibition assay (site-specific cleavage/joining of labeled oligonucleotide substrate)
Details: initial screening at 10 μM; assay in duplicate

// field: IC50; key: `CC(C)NC(=N)c1ccc2nc(-c3ccc(-c4nc5ccc(C(=N)NC(C)C)cc5[nH]4)n3C)[nH]c2c1` ; value = < 10 µM

Documented IC50 of `N=C(NC1CCCC1)c1ccc2nc(-c3ccc(-c4nc5ccc(C(=N)NC6CCCC6)cc5[nH]4)[nH]3)[nH]c2c1` : < 5 µM

Entry `Cn1c(-c2nc3ccc(C(=N)NC4CCCC4)cc3[nH]2)ccc1-c1nc2ccc(C(=N)NC3CCCC3)cc2[nH]1` , IC50 reported as > 10 µM

molecule `CC(C)NC(=N)c1ccc2nc(-c3ccc(-c4nc5ccc(C(=N)NC(C)C)cc5[nH]4)o3)[nH]c2c1` , IC50 observed: < 10 µM
